# measurement-target: T1, human MSLN-FL-his protein (human, UniProt Q13421 296-580)
# T1 construct: made in HEK293E cells, purified on nickel column; also called hMSLN-FL-his; human MSLN full-length protein; not shown: His tag
# T1 sequence (Q13421 other isoform, or with tags, fused parts or gaps): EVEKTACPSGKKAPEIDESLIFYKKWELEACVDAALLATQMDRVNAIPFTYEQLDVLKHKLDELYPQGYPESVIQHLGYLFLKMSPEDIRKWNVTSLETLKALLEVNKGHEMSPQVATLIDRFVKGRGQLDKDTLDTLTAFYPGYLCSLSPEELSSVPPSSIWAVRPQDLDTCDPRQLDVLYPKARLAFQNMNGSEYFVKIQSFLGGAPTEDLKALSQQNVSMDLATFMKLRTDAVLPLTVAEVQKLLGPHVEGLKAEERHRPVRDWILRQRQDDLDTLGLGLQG
# assay-info: competitive ELISA; row F2.58.8; further: test concentration or dose not given here

binder	measurement-units	competition rate
S009-F2.23.12 (antibody, human IgG1, kappa, V domains shown, human-murine chimeric antibody, human IgG1/kappa constant regions) VH: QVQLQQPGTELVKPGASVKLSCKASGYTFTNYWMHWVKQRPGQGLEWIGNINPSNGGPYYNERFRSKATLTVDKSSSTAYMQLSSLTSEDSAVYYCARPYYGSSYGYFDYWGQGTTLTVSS VL: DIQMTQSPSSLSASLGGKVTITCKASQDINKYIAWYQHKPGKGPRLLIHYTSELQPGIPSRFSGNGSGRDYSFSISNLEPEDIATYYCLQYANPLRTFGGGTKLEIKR	%	69
Tab107 (YP3, hIgG1) (antibody, V domains shown, Control antibody; VH and VL recombined into human IgG1 CH and CL expression vectors; also called YP3 human IgG1 antibody) VH: QEQLVESGGGLVQPGASLTLTCTASGIDFSRYYMCWVRQAPGKGLEGIACIYIGGSGSTYYASWAKGRFTISKASSTTVTLQMTSLTAADTATYFCARGTNLNYIFRLWGPGTLVTVSS VL: DVVMTQTPSPVSAAVGGTVTIKCQASQSINNGLAWYQQKPGQPPRLLIYSASNLESGVPSRFKGSGSGTEFTLTISDLECDDAATYYCQCIWDGNSYVNAFGGGTEVVVRT	%	9
S009-F2.39.3 (antibody, human IgG1, kappa, V domains shown, human-murine chimeric antibody, human IgG1/kappa constant regions) VH: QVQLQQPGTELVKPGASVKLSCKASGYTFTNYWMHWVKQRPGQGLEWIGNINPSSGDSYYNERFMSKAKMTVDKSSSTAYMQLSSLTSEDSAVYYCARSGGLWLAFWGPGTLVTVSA VL: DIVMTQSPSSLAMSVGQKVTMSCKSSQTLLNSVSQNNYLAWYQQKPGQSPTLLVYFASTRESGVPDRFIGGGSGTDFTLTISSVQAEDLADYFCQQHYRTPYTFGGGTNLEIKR	%	97
